- Assayed Target: HA of A/Kawasaki/9/86 (H1N1) (influenza A virus)
- Test Protocol: cell-based or functional assay
Classification field: t = Neutralization IC50, H1-Kaw86 at or over 0.4 µg/mL; f = Neutralization IC50, H1-Kaw86 under 0.4 µg/mL.

Example entries begin here.
Antibody 14 (antibody, V domains shown) VH: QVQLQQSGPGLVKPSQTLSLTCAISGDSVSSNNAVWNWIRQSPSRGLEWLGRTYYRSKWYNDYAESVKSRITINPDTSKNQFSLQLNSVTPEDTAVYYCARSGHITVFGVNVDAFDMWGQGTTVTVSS VL: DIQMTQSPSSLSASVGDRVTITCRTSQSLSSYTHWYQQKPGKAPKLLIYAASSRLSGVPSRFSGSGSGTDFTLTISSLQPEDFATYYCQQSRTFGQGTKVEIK :: f
Antibody 11 (antibody, V domains shown) VH: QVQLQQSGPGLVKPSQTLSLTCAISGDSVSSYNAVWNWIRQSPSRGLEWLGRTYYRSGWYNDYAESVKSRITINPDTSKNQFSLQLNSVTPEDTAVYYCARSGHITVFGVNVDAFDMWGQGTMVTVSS VL: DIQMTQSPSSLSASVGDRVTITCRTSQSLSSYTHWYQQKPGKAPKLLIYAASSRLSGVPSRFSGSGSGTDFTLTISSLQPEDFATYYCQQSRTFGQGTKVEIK :: t

Enquiry: I'd appreciate it if you could say whether Antibody 3 (antibody, V domains shown) VH: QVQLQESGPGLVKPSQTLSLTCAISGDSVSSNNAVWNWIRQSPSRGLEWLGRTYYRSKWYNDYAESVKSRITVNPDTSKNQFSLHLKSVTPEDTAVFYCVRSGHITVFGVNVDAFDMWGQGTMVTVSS VL: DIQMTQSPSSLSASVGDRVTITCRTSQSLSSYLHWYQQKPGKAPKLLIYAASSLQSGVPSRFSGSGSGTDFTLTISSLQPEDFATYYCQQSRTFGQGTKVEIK has Neutralization IC50, H1-Kaw86 at least equal to 0.4 µg/mL.
Return: t

Enquiry: I'd appreciate it if you could say whether Antibody 12 (antibody, V domains shown) VH: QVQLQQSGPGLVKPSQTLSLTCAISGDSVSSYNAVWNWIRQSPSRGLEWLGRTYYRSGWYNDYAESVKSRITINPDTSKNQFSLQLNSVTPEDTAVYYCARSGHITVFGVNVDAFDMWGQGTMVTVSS VL: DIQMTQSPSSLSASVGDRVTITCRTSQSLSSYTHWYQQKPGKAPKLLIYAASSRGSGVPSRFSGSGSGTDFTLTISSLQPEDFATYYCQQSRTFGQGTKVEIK has Neutralization IC50, H1-Kaw86 at least equal to 0.4 µg/mL.
Return: f
